target: MMP-9 (Homo sapiens, UniProt P14780); construct: made in house; assay: P218 quenched fluorescence assay for MMP inhibition, MMP-9; type: biochemical; details: 6 μM P218 substrate, 25 min at 37° C., pH 6.5; read-out: MMP-9 Fluorogenic IC50
Sequence (P14780 107-707 limits assumed): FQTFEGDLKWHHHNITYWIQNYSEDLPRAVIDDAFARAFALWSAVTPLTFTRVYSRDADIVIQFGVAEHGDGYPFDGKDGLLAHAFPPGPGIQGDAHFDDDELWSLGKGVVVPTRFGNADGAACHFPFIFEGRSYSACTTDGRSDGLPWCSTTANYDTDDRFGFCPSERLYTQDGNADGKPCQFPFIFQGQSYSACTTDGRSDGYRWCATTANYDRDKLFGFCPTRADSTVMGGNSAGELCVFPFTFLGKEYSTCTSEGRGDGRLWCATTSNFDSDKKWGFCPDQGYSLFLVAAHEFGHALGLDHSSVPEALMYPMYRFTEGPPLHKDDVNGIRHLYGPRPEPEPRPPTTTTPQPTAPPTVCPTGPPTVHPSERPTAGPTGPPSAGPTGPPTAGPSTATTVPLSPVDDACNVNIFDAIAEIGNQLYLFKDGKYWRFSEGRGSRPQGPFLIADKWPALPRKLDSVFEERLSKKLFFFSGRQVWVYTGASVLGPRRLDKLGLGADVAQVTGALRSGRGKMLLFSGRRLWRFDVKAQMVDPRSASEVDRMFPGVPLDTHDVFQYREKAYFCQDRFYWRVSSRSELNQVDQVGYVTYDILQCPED
// boundary case: IC50 equal to 20 nM maps to n; strictly smaller maps to y

Dear reviewer, please state whether O=C(c1ccc(-c2ccc(Cl)cc2)cc1)C1CCC(CSC(=S)N2CCCC2)C1C(=O)O (stereo not shown) has IC50 strictly beneath 20 nM.
n

Proceed to O=C(c1ccc(-c2ccc(Cl)cc2)cc1)C1CCC(Cn2c(=O)oc3ccccc32)C1C(=O)O (stereo not shown)
y

Proceed to O=C(c1ccc(-c2ccc(Cl)cc2)cc1)C1CCC(Cn2ncc3ccccc3c2=O)C1C(=O)O (stereo not shown)
y

Proceed to O=C(O)C1[C@H](COCOCc2ccccc2)CC[C@@H]1C(=O)c1ccc(-c2ccc(Cl)cc2)cc1 (relative stereo)
n

Proceed to O=C(CC(CCn1nnc2ccccc2c1=O)C(=O)O)c1ccc(-c2ccc(Cl)cc2)cc1 (single isomer, unassigned) [Example 20]
n

Proceed to O=C(CC(CCn1ncc2ccccc2c1=O)C(=O)O)c1ccc(-c2ccc(Cl)cc2)cc1 (stereo not shown)
n

Proceed to O=C(CC(CCn1nnc2ccccc2c1=O)C(=O)O)c1ccc(-c2ccc(Cl)cc2)cc1 (single isomer, unassigned) [Example 21]
y
